Origin of values: patent US9790201B2

Form field: IC50 (one value per entry).
Target desc: human PKR1 receptors (Homo sapiens (Human), UniProt Q8TCW9)
Sequence (Q8TCW9 whole entry): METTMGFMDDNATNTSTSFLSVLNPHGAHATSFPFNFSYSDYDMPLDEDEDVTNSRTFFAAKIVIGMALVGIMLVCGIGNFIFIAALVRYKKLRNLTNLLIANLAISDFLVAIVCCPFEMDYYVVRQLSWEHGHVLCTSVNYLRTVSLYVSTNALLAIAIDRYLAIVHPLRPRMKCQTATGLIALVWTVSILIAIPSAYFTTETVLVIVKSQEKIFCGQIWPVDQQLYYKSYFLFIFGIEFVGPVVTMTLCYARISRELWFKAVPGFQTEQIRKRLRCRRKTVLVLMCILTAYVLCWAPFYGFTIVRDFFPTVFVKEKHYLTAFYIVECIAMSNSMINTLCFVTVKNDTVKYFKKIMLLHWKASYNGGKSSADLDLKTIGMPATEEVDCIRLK
Experimental protocol: PKR1 antagonist assay: block of PK1-mediated intracellular calcium release (FLIPR Tetra)
Experimental conditions: RBL2H3 cells expressing human PKR1; stimulation with PK1 at EC80; calcium fluorescence

[
  {
    "Molecule": "CNc1cc(C(=O)N2CCCC(c3ccc(C)cc3)C2)ccn1 (centres unmarked)",
    "Target desc": "human PKR1 receptors (Homo sapiens (Human), UniProt Q8TCW9)",
    "IC50": "290 nM"
  },
  {
    "Molecule": "Cc1ccc(C2CCCN(C(=O)c3ccnc(C)c3)C2)cc1 (centres unmarked)",
    "Target desc": "human PKR1 receptors (Homo sapiens (Human), UniProt Q8TCW9)",
    "IC50": "2800 nM"
  },
  {
    "Molecule": "Cc1nn(C)cc1C(=O)N1CCCC(c2ccc(Cl)cc2C(F)(F)F)C1 (centres unmarked)",
    "Target desc": "human PKR1 receptors (Homo sapiens (Human), UniProt Q8TCW9)",
    "IC50": "490 nM"
  },
  {
    "Molecule": "Cc1ccc(C2CCCN(C(=O)c3ccnc(N(C)C4CC4)c3)C2)cc1 (centres unmarked)",
    "Target desc": "human PKR1 receptors (Homo sapiens (Human), UniProt Q8TCW9)",
    "IC50": "7050 nM"
  },
  {
    "Molecule": "CNc1cc(C(=O)N2CCCCC(c3ccc(Cl)cc3)C2)ccn1 (centres unmarked)",
    "Target desc": "human PKR1 receptors (Homo sapiens (Human), UniProt Q8TCW9)",
    "IC50": "430 nM"
  }
]

====

Target desc: UniProt:Q8TCW9
Experimental protocol: PKR1 antagonist assay: block of PK1-mediated intracellular calcium release (FLIPR Tetra)
Experimental conditions: RBL2H3 cells expressing human PKR1; stimulation with PK1 at EC80; calcium fluorescence
Where a name gives a salt, the structure may show the parent alone.

[
  {
    "Molecule": "Cc1ccc(C2CCCN(C(=O)c3ccnc(N(C)C)c3)C2)cc1 (single isomer, unassigned) [Example 51]",
    "IC50": "310 nM"
  },
  {
    "Molecule": "CCOc1cc(Cl)ccc1C1CCCN(C(=O)c2cnnc(N(C)C)c2)C1 (stereo not drawn)",
    "IC50": "90 nM"
  },
  {
    "Molecule": "CN(C)c1cc(C(=O)N2CCCC(c3ccccc3C#N)C2)ccn1 (stereo not drawn)",
    "IC50": "2260 nM"
  },
  {
    "Molecule": "Cc1cc(Cl)cc(C)c1C1CCCN(C(=O)c2ccnc(N(C)C)c2)C1 (stereo not drawn)",
    "IC50": "1540 nM"
  },
  {
    "Molecule": "CN(C)c1cc(C(=O)N2CCCC(c3ccc(Cl)cc3Cl)C2)ccn1 (stereo not drawn)",
    "IC50": "190 nM"
  },
  {
    "Molecule": "CN(C)c1cc(C(=O)N2CCCC(O)(c3ccc(F)cc3)C2)ccn1 (stereo not drawn)",
    "IC50": "3940 nM"
  },
  {
    "Molecule": "CN(C)c1cc(C(=O)N2CCCC(c3ccc(C(F)(F)F)cc3)C2)ccn1 (stereo not drawn) [Example 44, formate]",
    "IC50": "4400 nM"
  },
  {
    "Molecule": "CN(C)c1cc(C(=O)N2C=C(c3ccc(Cl)cc3)CCC2)ccn1",
    "IC50": "420 nM"
  },
  {
    "Molecule": "COc1cc(C(=O)N2CCCC(c3ccc(C)cc3)C2)ccn1 (stereo not drawn)",
    "IC50": "5270 nM"
  },
  {
    "Molecule": "COc1cc(C(=O)N2CCCC(c3ccc(Cl)cc3C)C2)cnn1 (stereo not drawn)",
    "IC50": "350 nM"
  },
  {
    "Molecule": "COc1ccc(C2CCCN(C(=O)c3cnnc(N(C)C)c3)C2)c(C(F)(F)F)c1 (stereo not drawn)",
    "IC50": "210 nM"
  },
  {
    "Molecule": "CNc1cc(C(=O)N2CCCC(c3ccc(OC)cc3C(F)(F)F)C2)cnn1 (stereo not drawn)",
    "IC50": "130 nM"
  },
  {
    "Molecule": "CCN(C)c1cc(C(=O)N2CCCC(c3ccc(C)cc3)C2)ccn1 (stereo not drawn)",
    "IC50": "5530 nM"
  },
  {
    "Molecule": "CCOc1cc(Cl)ccc1C1CCCN(C(=O)c2cnnc(NC)c2)C1 (stereo not drawn)",
    "IC50": "170 nM"
  },
  {
    "Molecule": "O=C(c1cnnc(N2CCC2)c1)N1CCCC(c2ccc(Cl)cc2C(F)(F)F)C1 (stereo not drawn)",
    "IC50": "730 nM"
  },
  {
    "Molecule": "Cc1nn(C)cc1C(=O)N1CCCC(c2ccc(Cl)cc2)C1 (stereo not drawn)",
    "IC50": "1820 nM"
  },
  {
    "Molecule": "Cc1ccccc1C1CCCN(C(=O)c2ccnc(N3CCC3)c2)C1 (stereo not drawn)",
    "IC50": "960 nM"
  },
  {
    "Molecule": "CC(C)Nc1cc(C(=O)N2CCCC(c3ccc(Cl)cc3)C2)ccn1 (stereo not drawn)",
    "IC50": "3270 nM"
  }
]

====

Target desc: human PKR1 receptors (Homo sapiens (Human), UniProt Q8TCW9)
Experimental protocol: PKR1 antagonist assay: block of PK1-mediated intracellular calcium release (FLIPR Tetra)
Experimental conditions: RBL2H3 cells expressing human PKR1; stimulation with PK1 at EC80; calcium fluorescence
Please use the following IC50 ranges when assigning a class: interval 1 = under 200 nM, interval 2 = from 200 nM up to 800 nM, interval 3 = 800 nM and over

[
  {
    "Molecule": "Cc1ccc(C2CCCN(C(=O)c3ccnc(N4CCC4)c3)C2)cc1 (stereo not drawn) [Example 21]",
    "Classification": "interval 3"
  },
  {
    "Molecule": "CCc1cc(C(=O)N2CCCC(c3ccc(Cl)cc3)C2)ccn1 (stereo not drawn) [Example 52]",
    "Classification": "interval 2"
  },
  {
    "Molecule": "Cn1cc(C(=O)N2CCCC(c3ccc(Cl)cc3C(F)(F)F)C2)cn1 (stereo not drawn) [Example 97]",
    "Classification": "interval 1"
  },
  {
    "Molecule": "CN(C)c1cc(C(=O)N2CCC[C@H](c3ccc(Cl)cc3)C2)ccn1 [Example 18]",
    "Classification": "interval 1"
  },
  {
    "Molecule": "CNc1cc(C(=O)N2CCCC(c3ccccc3C(F)(F)F)C2)ccn1 (stereo not drawn) [Example 54]",
    "Classification": "interval 2"
  },
  {
    "Molecule": "CN(C)c1cc(C(=O)N2CCC[C@@H](c3ccc(Cl)cc3)C2)ccn1 [Example 17]",
    "Classification": "interval 3"
  },
  {
    "Molecule": "CNc1cc(C(=O)N2CCCC(c3ccc(C(F)(F)F)cc3OC)C2)cnn1 (stereo not drawn) [Example 78]",
    "Classification": "interval 3"
  },
  {
    "Molecule": "Cc1cc(C(=O)N2CCCC(c3ccc(Cl)cc3C)C2)ccn1 (stereo not drawn) [Example 5]",
    "Classification": "interval 2"
  },
  {
    "Molecule": "Cc1ccccc1C1CCCN(C(=O)c2ccnc(N(C)C)c2)C1 (stereo not drawn) [Example 14]",
    "Classification": "interval 1"
  }
]

====

Some compounds, each annotated with its measured log10 IC50.
Target desc: human PKR1 receptors (Homo sapiens (Human), UniProt Q8TCW9)
Experimental protocol: PKR1 antagonist assay: block of PK1-mediated intracellular calcium release (FLIPR Tetra)
Format: cell-based
Experimental conditions: RBL2H3 cells expressing human PKR1; stimulation with PK1 at EC80; calcium fluorescence
Observation type: log10 IC50 (log10 of the value in nM)

[
  {
    "Compound": "CCOc1cc(C(=O)N2CCCC(c3ccc(Cl)cc3)C2)ccn1 (centres unmarked) [Example 42]",
    "log10 IC50": 3.92
  },
  {
    "Compound": "CN(C)c1cc(C(=O)N2CCCCC(c3ccc(Cl)cc3)C2)ccn1 (centres unmarked) [Example 108]",
    "log10 IC50": 3.51
  },
  {
    "Compound": "CNc1cc(C(=O)N2CCCC(c3ccc(OC)cc3)C2)ccn1 (centres unmarked) [Example 55]",
    "log10 IC50": 2.54
  },
  {
    "Compound": "CNc1cc(C(=O)N2CCCC(c3ccc(C(F)(F)F)cc3)C2)ccn1 (centres unmarked) [Example 53]",
    "log10 IC50": 3.47
  },
  {
    "Compound": "Cc1cc(Cl)ccc1C1CCCN(C(=O)c2ccnc(N(C)C)c2)C1 (centres unmarked) [Example 24]",
    "log10 IC50": 1.48
  },
  {
    "Compound": "COc1ccc(C2CCCN(C(=O)c3cn(C)nc3N)C2)c(C)c1 (centres unmarked) [Example 102]",
    "log10 IC50": 3.19
  },
  {
    "Compound": "Cc1ccc(C2CCCN(C(=O)c3ccnc(N(C)C)c3)C2)cc1 (centres unmarked) [Example 49]",
    "log10 IC50": 2.62
  },
  {
    "Compound": "CNc1cc(C(=O)N2CCCCC(c3ccc(Cl)cc3)C2)cnn1 (centres unmarked) [Example 113]",
    "log10 IC50": 2.97
  },
  {
    "Compound": "COc1ccc(C2CCCN(C(=O)c3cnnc(N(C)C)c3)C2)c(C)c1 (centres unmarked) [Example 80]",
    "log10 IC50": 2.20
  },
  {
    "Compound": "O=C(c1cn[nH]c1)N1CCCC(c2ccc(Cl)cc2C(F)(F)F)C1 (centres unmarked) [Example 96]",
    "log10 IC50": 3.39
  },
  {
    "Compound": "CC(C)n1cc(C(=O)N2CCCC(c3ccc(Cl)cc3C(F)(F)F)C2)cn1 (centres unmarked) [Example 99]",
    "log10 IC50": 2.52
  }
]
